Listed below: cell viability values for each entry.
# Tested on: HepG2
# Method: cell viability relative to DMSO; higher = less toxic
# Condition Info: 72 h; 1000 nM
Where a name gives a salt, the structure may show the parent alone.
Entry rule: numbers only, all in %.

Illustrative cases are given below, each with its answer.
INSERT INTO assay_data (compound, target_entity, unit_of_measure, reported_value) VALUES
  ('CCOC(=O)c1c(C)n(C)c2ccc(O)cc12 [mecarbinate]', 'HepG2', '%', 97.8),
  ('O=C(c1ccc(F)cc1)C1CCN(CCn2c(=S)[nH]c3ccccc3c2=O)CC1', 'HepG2', '%', 96),
  ('Cc1cc2sc(NC(=O)Cc3ccccc3)nc2cc1Cl', 'HepG2', '%', 102);

Any idea what cell viability was measured for O=C1CCCN1CC#CCN1CCCC1 [oxotremorine-sesquifumarate] ?
94.9

Further, for COc1cc(C(=O)NCc2ccc(OCCN(C)C)cc2)cc(OC)c1OC [trimethobenzamide] ?
101

Further, for `Cc1ccc2cc(-c3c(C)ccc(C(=O)c4c(-c5ccccc5)n(C)n(-c5ccccc5)c4=O)c3N)ccc2n1` ?
91.3

Further, for O=C1CC[C@@]2(O)[C@H]3Cc4ccc(O)c5c4[C@@]2(CCN3CC2CC2)[C@H]1O5 [NALTREXONE HYDROCHLORIDE] ?
95.1

Further, for `CC[C@H](Nc1ncnc2[nH]cnc12)c1nc2cccc(F)c2c(=O)n1-c1ccccc1` ?
97.3

Further, for `Nc1nc(NC[C@H]2CC[C@H](CNS(=O)(=O)c3cccc4ccccc34)CC2)nc2ccccc12` ?
86.3

====

# Test system: Vero E6
# Method: cell viability relative to DMSO; higher = less toxic
# Condition Info: 72 h; 1 nM
Value Type: cell viability
Lab note: write values as number then unit, every time.

Illustrative cases are given below, each with its answer.
INSERT INTO results (compound, value_type, reported_value) VALUES
  ('CCN1CCN(c2ccc(C(C)(C)NC(=O)c3cc4[nH]c5ccccc5c(=O)c4cc3F)cn2)CC1', 'cell viability', '109%'),
  ('CCCc1nc(C(C)(C)O)c(C(=O)OCc2oc(=O)oc2C)n1Cc1ccc(-c2ccccc2-c2nnn[nH]2)cc1 [olmesartan-medoxomil]', 'cell viability', '97.6%');

Any idea what cell viability was measured for CCOC(N)=O [urethane] ?
98.9%

Further, for COc1ccccc1-c1c[nH]c2ncc(-c3cncc(C(=O)N(C)C)c3)cc12 [PPY-A] ?
95.4%

Further, for CCCN(CCC)C(=O)C(CCC(=O)O)NC(=O)c1ccccc1 (centres undefined) [proglumide] ?
104%

Further, for Cc1nc(-c2cn3c(n2)-c2ccc(-c4cnn(C(C)(C)C(N)=O)c4)cc2OCC3)n(C(C)C)n1 [taselisib] ?
106%

Further, for CC(C)c1cccc2c1OC(C(C)C)C(=S)N2CC(=O)O (centres undefined) [AD-5467] ?
95.7%

Further, for O=c1n(CCCN2CCN(c3cccc(Cl)c3)CC2)nc2ccccn12 [trazodone] ?
98.8%

Further, for CCOC(=O)[C@H](Cc1ccccc1)NC(=O)c1cc(Cl)c(OCCN2CCN(C)CC2)c(Cl)c1O [JTE-607] ?
103%

====

Listed below: cell viability values for each entry.
# Test system: HepG2
# Method: cell viability relative to DMSO; higher = less toxic
# Condition Info: 72 h; 100 nM
Entry rule: numbers only, all in %.

Any idea what cell viability was measured for C=C1/C(=C\C=C2/CCC[C@]3(C)[C@@H]([C@H](C)CCCC(O)(C(F)(F)F)C(F)(F)F)CC[C@@H]23)C[C@@H](O)C[C@@H]1O [falecalcitriol] ?
94.1

Further, for O=C(Nc1cc2cc[nH]c2cn1)c1ccccc1 [OAC1] ?
101

Further, for COc1ccc(CCN(C)CCCN2CCc3cc(OC)c(OC)cc3CC2=O)cc1OC [zatebradine] ?
100

Further, for Oc1c(Cl)cc(Cl)c2cccnc12 [chloroxine] ?
92.2

Further, for O=c1cc(-c2ccccc2)oc2cc(O)c(O)c(O)c12 [baicalein] ?
90.8

Further, for `Cc1cc(C)c2c(N)c(C(=O)NCc3ccc(Cl)cc3)sc2n1` ?
101

Further, for Cc1[nH]c(=O)c(C#N)cc1-c1ccc2nccn2c1 [olprinone] ?
103

Further, for COc1ccnc(C[S+]([O-])c2nc3cc(OC(F)F)ccc3[nH]2)c1OC (centres undefined) [pantoprazole] ?
111

Further, for CC1(C)CNc2cc(NC(=O)c3cccnc3NCc3ccncc3)ccc21 [motesanib] ?
97.4

====

# System: Vero E6
# Method: cell viability relative to DMSO; higher = less toxic
# Condition Info: 72 h; 10000 nM
Listed below: cell viability values for each entry.
Entry rule: numbers only, all in %.

Illustrative cases are given below, each with its answer.
INSERT INTO assay_data (compound, unit_of_measure, reported_value) VALUES
  ('c1cnc2c([O][Ga]([O]c3cccc4cccnc34)[O]c3cccc4cccnc34)cccc2c1 [gallium-triquinolin-8-olate]', '%', 87.7),
  ('COc1cc2c(c(OC)c1OC)-c1c(cc3c(c1OC)OCO3)CC(C)C(C)C2 (stereo unspecified)', '%', 101),
  ('CCCc1cc(C)[nH]c(=O)c1CNC(=O)c1cc(-c2ccc(N3CCN(C(C)C)CC3)nc2)cc2c1cnn2C(C)C', '%', 107);

Any idea what cell viability was measured for `CC(C)(C)c1ccc(S(=O)(=O)NCc2ccc(C(=O)Nc3cccnc3)cc2)cc1` ?
2.9

Further, for `CCNC(=O)[C@@H]1CCCN1C(=O)[C@H](CCCNC(=N)N)NC(=O)[C@H](CC(C)C)NC(=O)[C@@H](C)NC(=O)[C@H](Cc1ccc(O)cc1)NC(=O)[C@H](CO)NC(=O)[C@H](Cc1c[nH]c2ccccc12)NC(=O)[C@H](Cc1cnc[nH]1)NC(=O)[C@@H]1CCC(=O)N1` ?
102

Further, for CCCCCCCCCCCCCCOC(=O)c1cccnc1 [myristyl-nicotinate] ?
101

====

Listed below: SARS-CoV-2 infection rate values for each entry.
# System: A549-ACE2 infected with SARS-CoV-2
# Method: SARS-CoV-2 infection rate relative to DMSO; higher = more infection
# Condition Info: 0.3 µM; 24 h
Entry rule: numbers only, all in %.

INSERT INTO assay_data (compound, target_entity, reported_value) VALUES
  ('COc1ccc(/C=C2\CCCN=C2c2cccnc2)c(OC)c1 [GTS21]', 'A549-ACE2 infected with SARS-CoV-2', 108);

Any idea what SARS-CoV-2 infection rate was measured for CN1C2CCC1CC(OC(c1ccccc1)c1ccc(Cl)cc1)C2 (configuration not stated) [3-CPMT] ?
96

Further, for `Nc1nc(NC[C@H]2CC[C@H](CNS(=O)(=O)c3cccc4ccccc34)CC2)nc2ccccc12` ?
95

Further, for `C/C(=N\NC(=S)N1CCC1)c1ccccn1` ?
104

Further, for CCCc1cc(C)[nH]c(=O)c1CNC(=O)c1cc(-c2ccc(N3CCN(C(C)C)CC3)nc2)cc2c1cnn2C(C)C [UNC1999] ?
100

Further, for CN1CCCC(CN2c3ccccc3Sc3ccccc32)C1 (configuration not stated) [mepazine] ?
102

Further, for c1cnc2c([O][Ga]([O]c3cccc4cccnc34)[O]c3cccc4cccnc34)cccc2c1 [gallium-triquinolin-8-olate] ?
98

====

Listed below: cell viability values for each entry.
# System: Caco-2
# Method: cell viability relative to DMSO; higher = less toxic
# Condition Info: 72 h; 10000 nM
Entry rule: numbers only, all in %.

INSERT INTO results (molecule, reported_value) VALUES
  ('Cc1cc(C(=O)O)sc1C(N)C(=O)O (stereo not drawn)', 96.9),
  ('Cc1ccc(C(=O)N(CCCN)[C@@H](c2oc3cc(Cl)ccc3c(=O)c2Cc2ccccc2)C(C)C)cc1', 5.6),
  ('COc1ccccc1OCC(O)CNC(C)C (stereo not drawn)', 92.7),
  ('C#C[C@]1(O)CC[C@H]2[C@@H]3CCC4=CC(=O)CCC4=C3C=C[C@@]21CC', 101);

Any idea what cell viability was measured for CCCN(CCC)C(=O)C(CCC(=O)O)NC(=O)c1ccccc1 (stereo not drawn) [proglumide] ?
102

Further, for `Ic1cc(-c2ccccc2)ncn1` ?
98

Further, for C=CC[N+]1([C@H]2C[C@H]3[C@@H]4CC[C@H]5C[C@H](O)[C@@H](N6CCOCC6)C[C@]5(C)[C@H]4CC[C@]3(C)[C@H]2OC(C)=O)CCCC1 [ROCURONIUM BROMIDE] ?
79.8

Further, for `CC(=O)NCCCOc1ccc(C(=O)N2CCC(N3C(=O)CCc4ccccc43)CC2)cc1` ?
88.6

Further, for `CCNC(=O)CC[C@H](N)C(=O)O` ?
105

Further, for `COc1ccc2cc(-c3cc(-c4cc(Cl)cc(Cl)c4)nn3[C@@H](C)c3ccc(C(=O)NCCC(=O)O)cc3)ccc2c1` ?
87.6

Further, for `CCCCN(CCCC)C(=O)CN1C[C@H](c2ccc3c(c2)OCO3)[C@@H](C(=O)O)[C@@H]1c1ccc(OC)cc1` ?
99.3
